# TEST_SYSTEM: the molecule itself
# ASSAY_PROTOCOL: SEC; Superdex 200 10/300 GL, 50 mM Tris-HCl pH 8.0, 300 mM NaCl, 10 mM MgCl2; oligomeric state calculated from elution volumes of proteins of known size; addition of UTP, Glc-1-P or UDP-Glc did not affect the oligomerization of the WT
Assign stoichiometry N to each entry below.
Numbers only.

Consider the following illustrative entries.
PROTEIN	QUANTITY_MEASURED	VAL
PaUGP D67N (enzyme, UDP-glucose pyrophosphorylase of Pseudomonas aeruginosa (galU), residues 1-279, point mutant of Strep-PaUGP; Same construct as m1; source: E. coli BL21(DE3), purified (Strep-Tactin Sepharose); not shown: Strep-tagII, N-terminal, kept) MIKKCLFPAAGYGTRFLPATKAMPKEMLPVVNKPLIQYAVEEALEAGLSEIGIVTGRGKRSLEDHFNISYELEHQIRNTDKEKYLVGIRRLIDECTFAYTRQVEMKGLGHAILTGRPLIGDEPFAVVLADDLCLNLEGDSVLKQMVKLYNQFRCSIVAIQEVPPEETNKYGVIAGEMIRDDIFRVNTMVEKPKPEEAPSNLAIIGRYILTPDIFDLIEQTEPGKGGEIQITDALMKQAQDGCVLAYKFKGKRFDCGSAEGYIEATNFCYENLYKTGKAH	stoichiometry N	2.1
PaUGP K59R (enzyme, UDP-glucose pyrophosphorylase of Pseudomonas aeruginosa (galU), residues 1-279, point mutant of Strep-PaUGP; Same construct as m1; source: E. coli BL21(DE3), purified (Strep-Tactin Sepharose); not shown: Strep-tagII, N-terminal, kept) MIKKCLFPAAGYGTRFLPATKAMPKEMLPVVNKPLIQYAVEEALEAGLSEIGIVTGRGRRSLEDHFDISYELEHQIRNTDKEKYLVGIRRLIDECTFAYTRQVEMKGLGHAILTGRPLIGDEPFAVVLADDLCLNLEGDSVLKQMVKLYNQFRCSIVAIQEVPPEETNKYGVIAGEMIRDDIFRVNTMVEKPKPEEAPSNLAIIGRYILTPDIFDLIEQTEPGKGGEIQITDALMKQAQDGCVLAYKFKGKRFDCGSAEGYIEATNFCYENLYKTGKAH	stoichiometry N	4
PaUGP D67A + R101A double mutant (enzyme, UDP-glucose pyrophosphorylase of Pseudomonas aeruginosa (galU), residues 1-279, double mutant of Strep-PaUGP; Same construct as m1; source: E. coli BL21(DE3), purified (Strep-Tactin Sepharose); not shown: Strep-tagII, N-terminal, kept) MIKKCLFPAAGYGTRFLPATKAMPKEMLPVVNKPLIQYAVEEALEAGLSEIGIVTGRGKRSLEDHFAISYELEHQIRNTDKEKYLVGIRRLIDECTFAYTAQVEMKGLGHAILTGRPLIGDEPFAVVLADDLCLNLEGDSVLKQMVKLYNQFRCSIVAIQEVPPEETNKYGVIAGEMIRDDIFRVNTMVEKPKPEEAPSNLAIIGRYILTPDIFDLIEQTEPGKGGEIQITDALMKQAQDGCVLAYKFKGKRFDCGSAEGYIEATNFCYENLYKTGKAH	stoichiometry N	2
PaUGP H74F (enzyme, UDP-glucose pyrophosphorylase of Pseudomonas aeruginosa (galU), residues 1-279, point mutant of Strep-PaUGP; Same construct as m1; source: E. coli BL21(DE3), purified (Strep-Tactin Sepharose); not shown: Strep-tagII, N-terminal, kept) MIKKCLFPAAGYGTRFLPATKAMPKEMLPVVNKPLIQYAVEEALEAGLSEIGIVTGRGKRSLEDHFDISYELEFQIRNTDKEKYLVGIRRLIDECTFAYTRQVEMKGLGHAILTGRPLIGDEPFAVVLADDLCLNLEGDSVLKQMVKLYNQFRCSIVAIQEVPPEETNKYGVIAGEMIRDDIFRVNTMVEKPKPEEAPSNLAIIGRYILTPDIFDLIEQTEPGKGGEIQITDALMKQAQDGCVLAYKFKGKRFDCGSAEGYIEATNFCYENLYKTGKAH	stoichiometry N	3.5

Dear reader, for each entry below, please note its stoichiometry N.
1. PaUGP Y70A (enzyme, UDP-glucose pyrophosphorylase of Pseudomonas aeruginosa (galU), residues 1-279, point mutant of Strep-PaUGP; Same construct as m1; source: E. coli BL21(DE3), purified (Strep-Tactin Sepharose); not shown: Strep-tagII, N-terminal, kept) MIKKCLFPAAGYGTRFLPATKAMPKEMLPVVNKPLIQYAVEEALEAGLSEIGIVTGRGKRSLEDHFDISAELEHQIRNTDKEKYLVGIRRLIDECTFAYTRQVEMKGLGHAILTGRPLIGDEPFAVVLADDLCLNLEGDSVLKQMVKLYNQFRCSIVAIQEVPPEETNKYGVIAGEMIRDDIFRVNTMVEKPKPEEAPSNLAIIGRYILTPDIFDLIEQTEPGKGGEIQITDALMKQAQDGCVLAYKFKGKRFDCGSAEGYIEATNFCYENLYKTGKAH
2. PaUGP Y70F (enzyme, UDP-glucose pyrophosphorylase of Pseudomonas aeruginosa (galU), residues 1-279, point mutant of Strep-PaUGP; Same construct as m1; source: E. coli BL21(DE3), purified (Strep-Tactin Sepharose); not shown: Strep-tagII, N-terminal, kept) MIKKCLFPAAGYGTRFLPATKAMPKEMLPVVNKPLIQYAVEEALEAGLSEIGIVTGRGKRSLEDHFDISFELEHQIRNTDKEKYLVGIRRLIDECTFAYTRQVEMKGLGHAILTGRPLIGDEPFAVVLADDLCLNLEGDSVLKQMVKLYNQFRCSIVAIQEVPPEETNKYGVIAGEMIRDDIFRVNTMVEKPKPEEAPSNLAIIGRYILTPDIFDLIEQTEPGKGGEIQITDALMKQAQDGCVLAYKFKGKRFDCGSAEGYIEATNFCYENLYKTGKAH
3. PaUGP H74A (enzyme, UDP-glucose pyrophosphorylase of Pseudomonas aeruginosa (galU), residues 1-279, point mutant of Strep-PaUGP; Same construct as m1; source: E. coli BL21(DE3), purified (Strep-Tactin Sepharose); not shown: Strep-tagII, N-terminal, kept) MIKKCLFPAAGYGTRFLPATKAMPKEMLPVVNKPLIQYAVEEALEAGLSEIGIVTGRGKRSLEDHFDISYELEAQIRNTDKEKYLVGIRRLIDECTFAYTRQVEMKGLGHAILTGRPLIGDEPFAVVLADDLCLNLEGDSVLKQMVKLYNQFRCSIVAIQEVPPEETNKYGVIAGEMIRDDIFRVNTMVEKPKPEEAPSNLAIIGRYILTPDIFDLIEQTEPGKGGEIQITDALMKQAQDGCVLAYKFKGKRFDCGSAEGYIEATNFCYENLYKTGKAH
4. PaUGP N32A (enzyme, UDP-glucose pyrophosphorylase of Pseudomonas aeruginosa (galU), residues 1-279, point mutant of Strep-PaUGP; Same construct as m1; source: E. coli BL21(DE3), purified (Strep-Tactin Sepharose); not shown: Strep-tagII, N-terminal, kept) MIKKCLFPAAGYGTRFLPATKAMPKEMLPVVAKPLIQYAVEEALEAGLSEIGIVTGRGKRSLEDHFDISYELEHQIRNTDKEKYLVGIRRLIDECTFAYTRQVEMKGLGHAILTGRPLIGDEPFAVVLADDLCLNLEGDSVLKQMVKLYNQFRCSIVAIQEVPPEETNKYGVIAGEMIRDDIFRVNTMVEKPKPEEAPSNLAIIGRYILTPDIFDLIEQTEPGKGGEIQITDALMKQAQDGCVLAYKFKGKRFDCGSAEGYIEATNFCYENLYKTGKAH

[A]
1: 2.5; 2: 3.7; 3: 3.7; 4: 4.4

[Q] Given PaUGP E63A (enzyme, UDP-glucose pyrophosphorylase of Pseudomonas aeruginosa (galU), residues 1-279, point mutant of Strep-PaUGP; Same construct as m1; source: E. coli BL21(DE3), purified (Strep-Tactin Sepharose); not shown: Strep-tagII, N-terminal, kept) MIKKCLFPAAGYGTRFLPATKAMPKEMLPVVNKPLIQYAVEEALEAGLSEIGIVTGRGKRSLADHFDISYELEHQIRNTDKEKYLVGIRRLIDECTFAYTRQVEMKGLGHAILTGRPLIGDEPFAVVLADDLCLNLEGDSVLKQMVKLYNQFRCSIVAIQEVPPEETNKYGVIAGEMIRDDIFRVNTMVEKPKPEEAPSNLAIIGRYILTPDIFDLIEQTEPGKGGEIQITDALMKQAQDGCVLAYKFKGKRFDCGSAEGYIEATNFCYENLYKTGKAH , respond with its stoichiometry N.
[A] 3.6
